test system: A498 renal; experiment: NCI tumour cell line growth inhibition, 48 h
In this section we review reported TGI values for a set of compounds.
Measured Property: TGI

| Compound | Measured Property | Result |
| --- | --- | --- |
| COC(=O)C1(C)OC(C)=NC1(C(=O)OC)C(=O)OC (stereo unspecified) | TGI | > 100 µM |
| NCCC1([N+](=O)[O-])CCNCC1 | TGI | > 100 µM |
| COC1(Cc2ccccc2)C(=O)c2ccccc2N1C(C)=O (stereo unspecified) | TGI | > 100 µM |
| Cc1cc(-c2ccc(C(=O)C(c3ccccc3)(c3ccccc3)c3ccccc3)[nH]2)on1 | TGI | > 100 µM |
| Cc1cc(C)nc(NS(=O)(=O)c2ccc(NC(=O)c3cccc4c(N)c5ccccc5nc34)cc2)n1 | TGI | > 100 µM |
| COC(=O)Nc1nc2ccc(S(=O)(=O)c3ccc(NC(=O)Nc4cc(C(F)(F)F)ccc4F)cc3)cc2[nH]1 | TGI | > 25 µM |

###

system: T-47D breast; assay: NCI tumour cell line growth inhibition, 48 h
In this section we review reported log10 TGI values for a set of molecules.
Measured Property: log10 TGI (log10 of the value in µM)

| Molecule | log10 TGI |
| --- | --- |
| S=C(Nc1cccc(C2(N3CCCCC3)CCCCC2)c1)Nc1cccc(C2(N3CCCCC3)CCCCC2)c1 | 1.56 |
| BrC1=CN2C[n+]3cc(Br)c4ccccc4c3N=C2c2ccccc21 | 1.27 |
| O=C(CN1C(=O)S/C(=C\C(Cl)=C\c2ccccc2)C1=O)NCCCn1ccnc1 | 1.24 |
| COC1C(O)C(C)OC(O[C@@H]2C[C@H]3CC[C@@H]4[C@H](CC[C@]5(C)[C@@H](C6=CC(=O)OC6)CC[C@]45O)[C@@]3(C)[C@H](O)C2)C1O (stereo partly drawn) | -0.09 |
| N#CCN(Cc1ccccc1)[C@@H]1CCC[C@]1(O)C#Cc1ccc2c(c1)OCO2 | 1.84 |
| Cc1cc(Cl)ccc1Nc1nc(C(F)(F)F)ccc1C(=O)Nc1cccc(C(F)(F)F)c1 | 1.38 |
| C=C(C)C(=O)O[C@H]1CC2=CC(CC(C)=C[C@H]3OC(=O)C(=C)C13)OC2=O (stereo partly drawn) | 1.57 |
| CC(=O)NC1C(OCc2ccccc2)OC(CO)C(O)C1OCC(=O)N1CCCC1C(=O)NC(CCC(=O)NCCCCCNc1c2ccccc2nc2cccc([N+](=O)[O-])c12)C(N)=O (stereo not drawn) | 0.92 |

###

test system: COLO 205 colon; assay: NCI tumour cell line growth inhibition, 48 h
In this section we review reported TGI values for a set of compounds.
Measured Property: TGI

| Compound | Result |
| --- | --- |
| Cc1ccc(N2C(=O)C(=O)N(/N=C3\C(=O)Nc4ccccc43)C2=S)cc1 | > 100 µM |
| CC1(C)N=C(Oc2ccccc2)n2nccc2N1 | > 100 µM |
| O=C(O)CCc1nc2cc3ccccc3cc2[nH]c1=O | > 100 µM |
| CCCc1cc(-c2ccc(-c3cc(CCC)c(C=O)[nH]3)s2)[nH]c1C=O | > 100 µM |
| NS(=O)(=O)c1ccc(NC(=O)c2cccc3c(Nc4ccc(S(N)(=O)=O)cc4)c4ccccc4nc23)cc1 | > 100 µM |
| CCOC(=O)/C(=N/Nc1ccc(Cl)cc1)N1C(=S)C=C(C)NN(C)C1=S | > 100 µM |
| NCCC1([N+](=O)[O-])CCNCC1 | > 100 µM |
| Cc1ccc(Nc2cn(COCc3ccccc3)c(=O)[nH]c2=O)cc1 | > 100 µM |
| CC(=O)C1=NN(c2ccccc2)C2(S1)SC(c1ccccc1)(c1ccccc1)c1ccccc12 (stereo not given) | > 100 µM |
| CCOC(=O)C1Oc2ccc([N+](=O)[O-])cc2C1(C)O (stereo not given) | > 100 µM |
| Cc1cc(C(O)CNC(C)CCn2cnc3c2c(=O)n(C)c(=O)n3C)ccc1O (stereo not given) | > 100 µM |
| COc1ccccc1Cn1[nH]c(=O)c2cc([N+](=O)[O-])ccc21 | > 100 µM |
| CN(C)C(=S)SCC(N)=O | > 100 µM |
| CCOP(=O)(OCC)C(=C1C=C(C(C)(C)C)C(=O)C(C(C)(C)C)=C1)P(=O)(OCC)OCC | 4.2 µM |
| COc1ccc(/C(C#N)=C(/N)SCc2ccccc2Cl)cc1 | 41.6 µM |
| CNC(=O)c1cncc(/C=C/c2c(Cl)cccc2Cl)c1 | > 25 µM |
| Nc1ccc(C2=Nc3ccccc3SC(c3ccccc3O)C2)cc1 (stereo not given) | > 100 µM |
| COc1nc(C)nc2c1ncn2Cc1ccccc1 | > 100 µM |
| OC1(c2ccc3ccccc3c2)c2c(c3ccccc3c3ccccc23)C2=NCCN21 (stereo not given) | 4.17 µM |
| O=[N+]([O-])c1cc2c(ccc3occc32)o1 | 3.12 µM |
| COc1cc2c(cc1OCCCCCn1c3ccccc3c3ccccc31)N=C[C@@H]1CCCN1C2=O | 4.57 µM |
| COC1C(O)C(C)OC(O[C@@H]2C[C@H]3CC[C@@H]4[C@H](CC[C@]5(C)[C@@H](C6=CC(=O)OC6)CC[C@]45O)[C@@]3(C)[C@H](O)C2)C1O (stereo not given in full) | 1.05 µM |
| CC1(C)CC2(C)ON=C(c3ccccc3)N2c2ccccc2N1 (stereo not given) | 45.9 µM |
| CN(C)c1ncnc2c1ccn2C1OC(CO)C(O)C1O (stereo not given) | > 100 µM |
| Cc1ccc(Nc2nc(C)c(C(/C=C/c3ccc4c(c3)OCO4)=N/Nc3ccc([N+](=O)[O-])cc3[N+](=O)[O-])s2)c([N+](=O)[O-])c1 | > 100 µM |
